meta.source: BindingDB's records for doi:10.1002/cbic.200400108

- target.desc: Epidermal growth factor receptor (Homo sapiens)
- Sequence (P00533 whole entry): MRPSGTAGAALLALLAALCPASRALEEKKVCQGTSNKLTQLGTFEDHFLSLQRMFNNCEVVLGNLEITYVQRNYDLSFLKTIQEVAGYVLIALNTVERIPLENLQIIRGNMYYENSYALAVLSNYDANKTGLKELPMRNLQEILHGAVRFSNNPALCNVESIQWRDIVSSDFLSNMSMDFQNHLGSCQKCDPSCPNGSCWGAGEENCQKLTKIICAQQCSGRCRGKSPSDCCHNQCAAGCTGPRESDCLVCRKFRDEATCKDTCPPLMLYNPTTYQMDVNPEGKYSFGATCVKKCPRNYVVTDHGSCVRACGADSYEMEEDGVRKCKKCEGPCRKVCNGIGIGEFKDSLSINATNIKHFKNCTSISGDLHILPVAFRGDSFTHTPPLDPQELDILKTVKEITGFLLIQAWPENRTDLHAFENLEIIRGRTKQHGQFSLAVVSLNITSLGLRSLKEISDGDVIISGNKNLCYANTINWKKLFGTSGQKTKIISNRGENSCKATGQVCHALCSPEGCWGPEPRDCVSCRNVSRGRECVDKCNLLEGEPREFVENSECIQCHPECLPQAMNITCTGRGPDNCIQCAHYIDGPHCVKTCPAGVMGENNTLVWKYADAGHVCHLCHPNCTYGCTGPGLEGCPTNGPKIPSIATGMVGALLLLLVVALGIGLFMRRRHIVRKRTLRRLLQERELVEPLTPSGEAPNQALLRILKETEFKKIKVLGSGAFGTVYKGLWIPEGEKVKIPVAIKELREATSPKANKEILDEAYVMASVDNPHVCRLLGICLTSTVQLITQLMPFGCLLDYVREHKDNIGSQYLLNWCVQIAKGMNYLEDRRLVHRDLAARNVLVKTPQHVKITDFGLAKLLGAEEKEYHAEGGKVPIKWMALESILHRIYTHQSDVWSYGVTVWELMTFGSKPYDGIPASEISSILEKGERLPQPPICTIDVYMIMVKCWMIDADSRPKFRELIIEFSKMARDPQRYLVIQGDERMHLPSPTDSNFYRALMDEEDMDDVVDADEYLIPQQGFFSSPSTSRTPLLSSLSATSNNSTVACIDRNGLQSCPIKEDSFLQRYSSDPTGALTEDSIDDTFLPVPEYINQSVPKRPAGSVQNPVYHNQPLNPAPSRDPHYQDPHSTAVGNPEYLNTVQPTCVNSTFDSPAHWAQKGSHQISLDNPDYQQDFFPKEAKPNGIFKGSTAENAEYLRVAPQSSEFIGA

{"compound": "CN(C)CCN(C)S(=O)(=O)c1ccc2c(c1)C(C1=Nc3ccccc3C1(C)O)C(=O)N2 (configuration not stated) [Indirubin derivative, 28b]", "IC50": "> 10 µM"}
{"compound": "C=CCC1(O)C(C2C(=O)Nc3ccc(S(=O)(=O)N(C)CCN(C)C)cc32)=Nc2ccccc21 (configuration not stated) [Indirubin derivative, 30b]", "IC50": "> 10 µM"}

* * *

For Cyclin-dependent kinase 2 (Homo sapiens, UniProt P24941), measured IC50 is reported for the entries below.
measurement.name: IC50 (µM)

{"compound": "O=C1Nc2ccccc2/C1=C1/Nc2ccccc2C1=O", "measurement.name": "IC50", "value.measured": 2}
{"compound": "CN(C)S(=O)(=O)c1ccc2c(c1)C(=C1Nc3ccccc3C1=O)C(=O)N2 [Indirubin derivative, 8]", "measurement.name": "IC50", "value.measured": 0.04}
{"compound": "CC1(O)C(C2C(=O)Nc3ccc(S(=O)(=O)N4CCC(O)CC4)cc32)=Nc2ccccc21 (centres undefined) [Indirubin derivative, 37]", "measurement.name": "IC50", "value.measured": 1.6}
{"compound": "CN(C)S(=O)(=O)c1ccc2c(c1)/C(=C1/Nc3ccccc3/C1=N\\OCCO[C@@H]1O[C@H](CO)[C@@H](O)[C@H](O)[C@H]1O)C(=O)N2 [Indirubin derivative, 36 (X=NO)]", "measurement.name": "IC50", "value.measured": 0.08}
